# reported IL-1β cba2; entries follow
tested on: human whole blood; type: cell-based; details: donor 1; further: unit not given here
Answer with the value's number alone.

>>> meas_value("CCCCCCCCCCC[C@H](CC(=O)N[C@H]1[C@H](OC[C@H](NC(=O)C[C@@H](CCCCCCCCCCC)OC(=O)CCCCCCCCC)C(=O)O)O[C@H](CO)[C@@H](OP(=O)(O)O)[C@@H]1OC(=O)C[C@@H](CCCCCCCCCCC)OC(=O)CCCCCCCCC)OC(=O)CCCCCCCCC.CCN(CC)CC")
7102

In plain terms, CCCCCCCCCCC[C@H](CC(=O)N[C@H]1[C@H](OC[C@H](NC(=O)C[C@@H](CCCCCCCCCCC)OC(=O)CCCCCCC)C(=O)O)O[C@H](CO)[C@@H](OP(=O)(O)O)[C@@H]1OC(=O)C[C@@H](CCCCCCCCCCC)OC(=O)CCCCCCC)OC(=O)CCCCCCC.CCN(CC)CC has a documented IL-1β cba2 of 519

Memo: CCCCCCCCCCCCCC(=O)O[C@H](CCCCCCCCCCC)CC(=O)N[C@H]1[C@H](OC[C@H](NC(=O)C[C@@H](CCCCCCCCCCC)OC(=O)CCCCCCCCCCCCC)C(=O)O)O[C@H](CO)[C@@H](OP(=O)(O)O)[C@@H]1OC(=O)C[C@@H](CCCCCCCCCCC)OC(=O)CCCCCCCCCCCCC.CCN(CC)CC , reported IL-1β cba2: 3230

Summary for this compound, CCCCCCCCCCC[C@H](CC(=O)N[C@H]1[C@H](OC[C@H](NC(=O)C[C@@H](CCCCCCCCCCC)OC(=O)CCCCCC)C(=O)O)O[C@H](CO)[C@@H](OP(=O)(O)O)[C@@H]1OC(=O)C[C@@H](CCCCCCCCCCC)OC(=O)CCCCCC)OC(=O)CCCCCC.CCN(CC)CC : IL-1β cba2 is 545

The reported IL-1β cba2 of the compound CCCCCCCCCCC[C@H](CC(=O)N[C@H]1[C@H](OC[C@H](NC(=O)C[C@@H](CCCCCCCCCCC)OC(=O)CCCCC)C(=O)O)O[C@H](CO)[C@@H](OP(=O)(O)O)[C@@H]1OC(=O)C[C@@H](CCCCCCCCCCC)OC(=O)CCCCC)OC(=O)CCCCC.CCN(CC)CC was 256

Recorded values, source patent US8318697B2.
